TARGET_SYSTEM: RELA (p65) subunit of heterodimer;p52 subunit (Homo sapiens;Homo sapiens, UniProt Q04206;Q00653 1-307;4-332)
Sequence (Q04206 1-307, chain 1 of 2): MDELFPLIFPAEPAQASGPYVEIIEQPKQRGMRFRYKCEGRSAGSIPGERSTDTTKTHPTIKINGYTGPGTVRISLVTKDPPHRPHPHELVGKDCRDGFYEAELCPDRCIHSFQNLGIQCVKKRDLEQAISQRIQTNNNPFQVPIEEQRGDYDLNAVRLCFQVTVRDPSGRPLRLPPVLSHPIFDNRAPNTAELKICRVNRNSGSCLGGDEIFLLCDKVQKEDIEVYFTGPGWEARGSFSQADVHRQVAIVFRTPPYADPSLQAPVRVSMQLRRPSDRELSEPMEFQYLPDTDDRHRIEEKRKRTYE
Sequence (Q00653 4-332, chain 2 of 2): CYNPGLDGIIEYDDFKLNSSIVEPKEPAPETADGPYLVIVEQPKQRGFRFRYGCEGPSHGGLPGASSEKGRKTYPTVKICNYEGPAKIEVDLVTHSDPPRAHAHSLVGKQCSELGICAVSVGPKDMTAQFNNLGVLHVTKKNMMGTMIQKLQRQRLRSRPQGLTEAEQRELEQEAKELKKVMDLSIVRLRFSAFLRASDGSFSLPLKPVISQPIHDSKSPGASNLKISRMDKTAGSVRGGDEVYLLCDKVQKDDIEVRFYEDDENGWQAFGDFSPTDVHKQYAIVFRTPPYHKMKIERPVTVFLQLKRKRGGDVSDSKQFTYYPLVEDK
PROTOCOL_NOTES: protein binding microarray; high values mean tight binding
STUDY_CONDITIONS: dsDNA, one strand shown
Dear colleague, classification is by binding signal, with ranges listed here: LOW = under -0.6 z-score, MID = from -0.6 z-score up to 0.3 z-score, HIGH = 0.3 z-score and over

{"columns": ["QUERY_SEQUENCE", "GROUP"],
 "data": [
  ["AGGAGCGCCCC", "HIGH"],
  ["GGAAACCTCCT", "MID"],
  ["AAAAAGCCCCC", "HIGH"],
  ["AGGTAGCTCCT", "LOW"],
  ["AAAGGATCCCT", "MID"],
  ["GAGATAGTCCT", "LOW"],
  ["AGATTTATCCC", "MID"],
  ["CAAATCTCCCT", "HIGH"],
  ["GAGTACACCCT", "MID"],
  ["AGATGCGCCCT", "LOW"],
  ["AGATACCCCCT", "HIGH"],
  ["AAATTGGCCCC", "MID"],
  ["AAGGACTCCCC", "HIGH"]
]}

---

TARGET_SYSTEM: RELARELA (p65 homodimer) (Homo sapiens, UniProt Q04206 1-307)
Sequence (Q04206 1-307): as the sequence (Q04206 1-307, chain 1 of 2) above
PROTOCOL_NOTES: protein binding microarray; high values mean tight binding
STUDY_CONDITIONS: dsDNA, one strand shown
Output satisfied for binding signal not less than -0.03 z-score; output not satisfied otherwise.

{"columns": ["QUERY_SEQUENCE", "GROUP"],
 "data": [
  ["GGGTTCCTCCT", "not satisfied"],
  ["GAAGATGCCCC", "satisfied"],
  ["AAGAGAGTCCT", "satisfied"],
  ["AAGGGGGCCCC", "not satisfied"],
  ["GAAGGCTCCCT", "not satisfied"],
  ["GAAAGGTTCCC", "satisfied"],
  ["CGGTTTACCCC", "satisfied"],
  ["AAGGTCCCCCC", "not satisfied"],
  ["GGAAGACTCCT", "not satisfied"],
  ["GGGGGCGCCCT", "satisfied"],
  ["GGATTAGCCCC", "satisfied"],
  ["CAGTACCCCCC", "not satisfied"],
  ["GGGTACCTCCC", "not satisfied"],
  ["CAAATAATCCT", "not satisfied"],
  ["AGAGGCCTCCT", "not satisfied"],
  ["GAAGTGTCCCT", "not satisfied"],
  ["AGGTTGGCCCC", "not satisfied"],
  ["AGGTAAACCCC", "satisfied"],
  ["GAGTAAGCCCC", "not satisfied"],
  ["CAGGAGGTCCT", "satisfied"],
  ["CAGTGACCCCT", "not satisfied"],
  ["GAATACTCCCC", "satisfied"],
  ["CGATTAATCCC", "satisfied"],
  ["GAATTGTCCCC", "satisfied"]
]}

---

TARGET_SYSTEM: RELA (p65) subunit of heterodimer;p52 subunit (Homo sapiens;Homo sapiens, UniProt Q04206;Q00653 1-307;4-332)
PROTOCOL_NOTES: protein binding microarray; high values mean tight binding
STUDY_CONDITIONS: dsDNA, one strand shown
Items are presented alongside their recorded binding signal.

{"columns": ["QUERY_SEQUENCE", "MEASURE_UNIT", "binding signal"],
 "data": [
  ["CAGGACTTCCT", "z-score", -0.542],
  ["CGGGAACCCCC", "z-score", 2.46],
  ["GGGTTATCCCC", "z-score", 2.63],
  ["AAGTACATCCC", "z-score", -0.425],
  ["AAGATCGTCCC", "z-score", -0.135],
  ["AGAGGAATCCC", "z-score", 0.227],
  ["CGGAAATCCCT", "z-score", 1.25]
]}

---

TARGET_SYSTEM: C-Rel subunit;p50 subunit (Homo sapiens;Homo sapiens, UniProt Q04864;P19838 1-285;7-356)
Sequence (Q04864 1-285, chain 1 of 2): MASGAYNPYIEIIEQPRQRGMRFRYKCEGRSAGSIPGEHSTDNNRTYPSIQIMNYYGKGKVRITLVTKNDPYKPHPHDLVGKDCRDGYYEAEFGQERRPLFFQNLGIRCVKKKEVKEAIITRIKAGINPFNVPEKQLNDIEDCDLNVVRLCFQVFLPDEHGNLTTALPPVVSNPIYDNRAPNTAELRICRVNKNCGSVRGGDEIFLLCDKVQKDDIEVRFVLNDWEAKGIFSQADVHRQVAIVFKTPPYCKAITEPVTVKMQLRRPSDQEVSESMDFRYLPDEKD
Sequence (P19838 7-356, chain 2 of 2): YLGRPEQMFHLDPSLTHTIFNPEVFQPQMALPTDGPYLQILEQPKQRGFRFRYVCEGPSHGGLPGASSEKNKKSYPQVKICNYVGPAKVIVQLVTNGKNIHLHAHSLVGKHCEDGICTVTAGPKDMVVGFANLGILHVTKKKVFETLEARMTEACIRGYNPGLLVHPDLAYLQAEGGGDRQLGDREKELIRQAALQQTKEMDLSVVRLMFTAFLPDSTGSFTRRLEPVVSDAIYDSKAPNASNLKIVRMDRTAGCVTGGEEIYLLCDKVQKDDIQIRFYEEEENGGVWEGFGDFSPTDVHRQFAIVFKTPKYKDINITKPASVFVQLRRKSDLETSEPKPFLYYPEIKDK
PROTOCOL_NOTES: protein binding microarray; high values mean tight binding
STUDY_CONDITIONS: dsDNA, one strand shown
Dear colleague, classification is by binding signal, with ranges listed here: lower range = under -0.3 z-score, middle range = from -0.3 z-score up to 0.9 z-score, upper range = 0.9 z-score and over

{"columns": ["QUERY_SEQUENCE", "GROUP"],
 "data": [
  ["GAGAAGCCCCT", "middle range"],
  ["GAAGAATCCCC", "upper range"],
  ["AGGAGTGTCCC", "middle range"],
  ["CAAGGTTCCCC", "upper range"],
  ["GGGGAGGTCCT", "middle range"],
  ["CAAAAGTTCCC", "middle range"],
  ["AGAATTGTCCC", "middle range"],
  ["AAGAGATCCCT", "lower range"],
  ["GAATATATCCC", "lower range"],
  ["AAGAATGTCCC", "middle range"],
  ["CAATTCCTCCT", "lower range"],
  ["AGGTAGCTCCT", "lower range"],
  ["CAATGTTCCCT", "middle range"],
  ["CAAAGGCTCCT", "lower range"],
  ["GGATAAATCCC", "middle range"],
  ["CAATTACCCCT", "middle range"],
  ["CGGATTGCCCC", "upper range"],
  ["GAATAGACCCT", "lower range"],
  ["CGAGGCACCCT", "lower range"],
  ["GGGTGTGTCCC", "middle range"],
  ["AAGGGAATCCC", "upper range"],
  ["GGAAATCCCCT", "upper range"],
  ["GAAGAGTTCCC", "middle range"]
]}

---

TARGET_SYSTEM: p50p50 homodimer (Homo sapiens, UniProt P19838 7-356)
Sequence (P19838 7-356): as the sequence (P19838 7-356, chain 2 of 2) above
PROTOCOL_NOTES: protein binding microarray; high values mean tight binding
STUDY_CONDITIONS: dsDNA, one strand shown
Output Yes for binding signal not less than 0.9 z-score; output No otherwise.

{"columns": ["QUERY_SEQUENCE", "TARGET_SYSTEM", "GROUP"],
 "data": [
  ["CGGGGTCTCCT", "p50p50 homodimer (Homo sapiens, UniProt P19838 7-356)", "No"],
  ["AGGTGCGTCCT", "p50p50 homodimer (Homo sapiens, UniProt P19838 7-356)", "No"],
  ["CAAGGGTCCCT", "p50p50 homodimer (Homo sapiens, UniProt P19838 7-356)", "No"],
  ["AAATTTCCCCC", "p50p50 homodimer (Homo sapiens, UniProt P19838 7-356)", "Yes"],
  ["GAAGAGCCCCT", "p50p50 homodimer (Homo sapiens, UniProt P19838 7-356)", "Yes"],
  ["GAAGATACCCT", "p50p50 homodimer (Homo sapiens, UniProt P19838 7-356)", "No"],
  ["AGAGGGACCCT", "p50p50 homodimer (Homo sapiens, UniProt P19838 7-356)", "No"],
  ["AAAGAATTCCC", "p50p50 homodimer (Homo sapiens, UniProt P19838 7-356)", "Yes"],
  ["GAGGTTCTCCC", "p50p50 homodimer (Homo sapiens, UniProt P19838 7-356)", "No"],
  ["CGGGTAGTCCC", "p50p50 homodimer (Homo sapiens, UniProt P19838 7-356)", "Yes"],
  ["GGAGACTTCCC", "p50p50 homodimer (Homo sapiens, UniProt P19838 7-356)", "No"],
  ["GGAAGTATCCT", "p50p50 homodimer (Homo sapiens, UniProt P19838 7-356)", "No"],
  ["CGATAATTCCC", "p50p50 homodimer (Homo sapiens, UniProt P19838 7-356)", "Yes"],
  ["AAAAATCCCCT", "p50p50 homodimer (Homo sapiens, UniProt P19838 7-356)", "Yes"],
  ["GGAGTTCCCCT", "p50p50 homodimer (Homo sapiens, UniProt P19838 7-356)", "Yes"],
  ["GAGTGTGCCCT", "p50p50 homodimer (Homo sapiens, UniProt P19838 7-356)", "No"],
  ["AGGGGATCCCT", "p50p50 homodimer (Homo sapiens, UniProt P19838 7-356)", "Yes"],
  ["AAGTTTCCCCT", "p50p50 homodimer (Homo sapiens, UniProt P19838 7-356)", "Yes"],
  ["GGATGTCCCCC", "p50p50 homodimer (Homo sapiens, UniProt P19838 7-356)", "Yes"],
  ["GAGAGGGTCCC", "p50p50 homodimer (Homo sapiens, UniProt P19838 7-356)", "No"],
  ["AGATGAACCCC", "p50p50 homodimer (Homo sapiens, UniProt P19838 7-356)", "No"],
  ["GAGTGCGTCCT", "p50p50 homodimer (Homo sapiens, UniProt P19838 7-356)", "No"],
  ["GGAATCGTCCC", "p50p50 homodimer (Homo sapiens, UniProt P19838 7-356)", "No"],
  ["AAGGATACCCC", "p50p50 homodimer (Homo sapiens, UniProt P19838 7-356)", "No"],
  ["AGGTTTTCCCC", "p50p50 homodimer (Homo sapiens, UniProt P19838 7-356)", "Yes"],
  ["GGAGTGGCCCT", "p50p50 homodimer (Homo sapiens, UniProt P19838 7-356)", "No"],
  ["CGGAATCCCCT", "p50p50 homodimer (Homo sapiens, UniProt P19838 7-356)", "Yes"],
  ["AAGAGGCCCCT", "p50p50 homodimer (Homo sapiens, UniProt P19838 7-356)", "No"],
  ["AAAAACATCCT", "p50p50 homodimer (Homo sapiens, UniProt P19838 7-356)", "No"],
  ["AAAGGATCCCT", "p50p50 homodimer (Homo sapiens, UniProt P19838 7-356)", "No"],
  ["GGGTGGGCCCT", "p50p50 homodimer (Homo sapiens, UniProt P19838 7-356)", "No"],
  ["GAAGGGACCCC", "p50p50 homodimer (Homo sapiens, UniProt P19838 7-356)", "No"],
  ["AGGTTGGCCCC", "p50p50 homodimer (Homo sapiens, UniProt P19838 7-356)", "No"],
  ["AGGATACCCCC", "p50p50 homodimer (Homo sapiens, UniProt P19838 7-356)", "Yes"],
  ["GGATTCCCCCT", "p50p50 homodimer (Homo sapiens, UniProt P19838 7-356)", "Yes"],
  ["GGGTACCTCCC", "p50p50 homodimer (Homo sapiens, UniProt P19838 7-356)", "No"],
  ["AGGGATCTCCC", "p50p50 homodimer (Homo sapiens, UniProt P19838 7-356)", "No"],
  ["AGATGGTTCCT", "p50p50 homodimer (Homo sapiens, UniProt P19838 7-356)", "No"],
  ["AGAATGTTCCT", "p50p50 homodimer (Homo sapiens, UniProt P19838 7-356)", "No"],
  ["AGGAATATCCC", "p50p50 homodimer (Homo sapiens, UniProt P19838 7-356)", "No"],
  ["GGGTAGTTCCT", "p50p50 homodimer (Homo sapiens, UniProt P19838 7-356)", "No"],
  ["CAAGGATTCCC", "p50p50 homodimer (Homo sapiens, UniProt P19838 7-356)", "No"],
  ["CAATTCCCCCC", "p50p50 homodimer (Homo sapiens, UniProt P19838 7-356)", "Yes"],
  ["GAATATATCCC", "p50p50 homodimer (Homo sapiens, UniProt P19838 7-356)", "No"],
  ["GAGATACCCCT", "p50p50 homodimer (Homo sapiens, UniProt P19838 7-356)", "No"],
  ["GAAGAAATCCC", "p50p50 homodimer (Homo sapiens, UniProt P19838 7-356)", "No"],
  ["AGAGATCCCCC", "p50p50 homodimer (Homo sapiens, UniProt P19838 7-356)", "Yes"],
  ["GAATGAGCCCT", "p50p50 homodimer (Homo sapiens, UniProt P19838 7-356)", "No"]
]}
